Readings of CC50 at 24 h for the listed compounds
- method: Quantitative Vero cell toxicity (MTT)
- Type: cell-based
- assay.conditions: African green monkey, Vero cells

Please review the entries below; each comes with its answer.
compound	readout	recorded.result
Cc1cc(O)c(=O)c(O)cc1-c1ccc(Br)cc1	CC50 at 24 h	> 100 µM
Cc1cc(O)c(=O)c(O)cc1-c1ccc(C(F)(F)F)cc1	CC50 at 24 h	> 100 µM
Cc1cc(O)c(=O)c(O)cc1C(=O)C1CCCCC1	CC50 at 24 h	~50 µM
Cc1cc(O)c(=O)c(O)cc1C(=O)c1ccccc1	CC50 at 24 h	> 50 µM
Nc1nc2c(ncn2COCCO)c(=O)[nH]1 [ACV, Acyclovir, reference compound]	CC50 at 24 h	> 100 µM
Cc1cc(O)c(=O)c(O)cc1C(=O)CC1CCCCC1	CC50 at 24 h	> 100 µM
Cc1cc(O)c(=O)c(O)cc1-c1ccccc1	CC50 at 24 h	> 100 µM
COC(=O)c1c(C)cc(O)c(=O)c(O)c1O	CC50 at 24 h	> 100 µM

Q. Reported CC50 at 24 h for Cc1cc(O)c(=O)c(O)cc1C(=O)c1ccc(-c2ccccc2)cc1 : what is it?
A. > 100 µM

Q. Can you share its CC50 at 24 h? I mean this compound: Cc1cc(O)c(=O)c(O)cc1-c1ccc2ccccc2c1
A. 74.8 µM

Q. What value of CC50 at 24 h has been recorded for this entry: Cc1cc(O)c(=O)c(O)cc1-c1cccc2ccccc12
A. > 100 µM

====

- Test system: HSV-1
- method: Anti-HSV-1 replication assay in Vero cells, titers by plaque assay
- Type: cell-based, herpes simplex virus 1
- assay.conditions: Human alphaherpesvirus 1, Vero, read-out: HSV-1 Log suppression 1.5 μM
Quick reference: log reduction at 1.5 µM of the listed items.
The response must contain the number and no unit.

Consider the worked cases shown below.
COC(=O)c1cc(O)c(=O)c(OC)cc1C 2.12
Cc1cc(O)c(=O)c(O)cc1C(=O)c1cccc(-c2ccccc2)c1 5.02

Q. log reduction at 1.5 µM for Cc1cc(O)c(=O)c(O)cc1C(=O)c1cccc(-c2cccc3ccccc23)c1 ?
A. 4.82

Q. Form field: reported log reduction at 1.5 µM of COC(=O)c1c(C)cc(OC)c(=O)c(O)c1OC
A. 0.24

Q. Suppose we examine the compound Cc1cc(O)c(=O)c(O)cc1C(=O)c1ccc(-c2ccc3ccccc3c2)cc1 ; what log reduction at 1.5 µM value has been reported?
A. 5.04

====

Listing of entries alongside the reported pEC50.
- Test system: HBV
- method: HBV replication assay in HepDES19 cells
- Type: cell-based
- assay.conditions: Hepatitis B virus; HepDES19 cells; read-out: EC50 (HBV assay)
# pEC50: negative log10 of molar concentration; output just the value

CC(=O)c1cc(O)c(=O)c(O)cc1C 6.47
Cc1cc(O)c(=O)c(O)cc1-c1ccc(-c2cccc3ccccc23)cc1 5.28
Cc1cc(O)c(=O)c(O)cc1-c1cccc2ccccc12 5.64
COC(=O)c1c(C)cc(O)c(=O)c(O)c1O 5.19
Cc1cc(O)c(=O)c(O)cc1-c1cccc(Br)c1 5.19

Q. What pEC50 value was documented for this compound, Cc1cc(O)c(=O)c(O)cc1C(=O)c1cccc(-c2cccc3ccccc23)c1 ?
A. 5.08

Q. May I ask what pEC50 has been recorded for Cc1cc(O)c(=O)c(O)cc1-c1ccc([N+](=O)[O-])cc1 ?
A. 5.60

Q. // query pEC50 value for entry Cc1cc(O)c(=O)c(O)cc1C(=O)c1ccc(-c2ccc3ccccc3c2)cc1
A. 5.06

Q. Query: pEC50; subject: Cc1cc(O)c(=O)c(O)cc1C(=O)c1cccc(-c2ccc3ccccc3c2)c1
A. 5.55

Q. # lookup: pEC50 of Cc1cc(O)c(=O)c(O)cc1C(=O)c1ccc(-c2ccccc2)cc1
A. 5.22

Q. What value of pEC50 has been recorded for this entry: Cc1cc(O)c(=O)c(O)cc1C(=O)C(C)C
A. 5.22

====

- method: Cytotoxicity reported with the HBV assay (Table 4)
- Format: cell-based
- assay.conditions: human
- Experimental: Qualitative assessments of cytotoxicity were done visually by inspecting the cells in the primary screening assays. For the quantitative assays, cells were plated in 96-well plates at 1.0×10^4 per well. […] Mitochondrial toxicity was measured by incubating the cells with 0.25 mg/mL thiazolyl blue tetrazolium bromide (MTT, Sigma Aldrich Chemical Co.), the cultures were incubated for 60 min, metabolites were solubilized in acidic isopropanol, and absorbance was read at 570 nm. […]
readout: CC50 at 24 h (µM)
Enter your answer as a number in µM; do not include the unit.

Q. Which CC50 at 24 h value is on record for COC(=O)c1c2c(cc(O)c(=O)c1O)COC2=O [Compound 280] ?
A. 32

====

- method: Mouse liver microsome assay
- Assay type: in vitro ADME
- assay.conditions: 1 μM in mouse liver microsomes; read-out: t ½
// reported half-life at 1 μM for each item listed
Could you give me the number in min? Just the number is fine.

Cc1cc(O)c(=O)c(O)cc1-c1ccc(-c2ccccc2)cc1 18

Q. Which half-life at 1 μM value is on record for Cc1cc(O)c(=O)c(O)cc1C(=O)c1ccc(-c2ccccc2)cc1 ?
A. 34

====

- System: HSV-1
- method: Anti-HSV-1 replication assay in Vero cells, titers by plaque assay
- Type: cell-based, herpes simplex virus 1
- assay.conditions: Human alphaherpesvirus 1, Vero, read-out: HSV-1 Log suppression 1.5 μM
Label scheme for log reduction at 1.5 µM: lower than 3 is 0.0, 3 and above is 1.0.

COC(=O)c1cc(O)c(=O)c(O)cc1C 0.0
Cc1cc(O)c(=O)c(O)cc1C(=O)c1ccc(-c2cccc3ccccc23)cc1 1.0
Cc1cc(O)c(=O)c(O)cc1-c1ccc(-c2ccc3ccccc3c2)cc1 0.0
Cc1cc(O)c(=O)c(O)cc1-c1cccc(-c2cccc3ccccc23)c1 0.0
Cc1cc(O)c(=O)c(O)cc1C(=O)c1cccc(-c2ccc3ccccc3c2)c1 1.0

Q. Test whether the compound COC(=O)c1c(C)cc(O)c(=O)c(O)c1O records log reduction at 1.5 µM of 3 or higher.
A. 1.0

Q. Please tell me: is the compound Cc1cc(O)c(=O)c(O)cc1C(=O)c1ccc(-c2ccncc2)cc1 at or over 3 in terms of log reduction at 1.5 µM?
A. 0.0

Q. Can O=C1OCc2cc(O)c(=O)c(O)c(O)c21 be said to have log reduction at 1.5 µM at or above 3?
A. 0.0

====

ER listing for selected compounds.
- method: Mouse liver microsome assay
- Assay type: in vitro ADME
- assay.conditions: extraction ratio, 1 μM in mouse liver microsomes

compound	ER
Cc1cc(O)c(=O)c(O)cc1C(=O)c1ccc(-c2ccccc2)cc1	0.63
CC(C)c1ccc(O)c(=O)c(O)c1 [Compound 46, β-thujaplicinol, reference compound]	0.78

From here, focus on the item given below.
Q. I am curious: what ER value has been reported for Cc1cc(O)c(=O)c(O)cc1-c1ccc(-c2ccccc2)cc1 ?
A. 0.76

====

CC50 at 24 h values, listed per item
- method: Cytotoxicity reported with the HBV assay (Table 4)
- Format: cell-based
- assay.conditions: human, hepatoma cells; read-out: CC50 (HBV assay table)

O=c1c(O)ccc(-c2cnc3ccccc3c2)cc1O 25 µM
Cc1cc(O)c(=O)c(O)cc1-c1ccc(-c2cccc3ccccc23)cc1 30 µM
Cc1cc(O)c(=O)c(O)cc1C(=O)C(C)C > 100 µM
COC(=O)c1c(C)cc(O)c(=O)c(O)c1O 13 µM
Cc1cc(O)c(=O)c(O)cc1C(=O)c1cccc(-c2ccc3ccccc3c2)c1 21 µM

Q. // returns reported CC50 at 24 h for input Cc1cc(O)c(=O)c(O)cc1-c1cccc2ccccc12
A. 12 µM

Q. Look up CC50 at 24 h for this compound: O=c1c(O)ccc(-c2ccco2)cc1O
A. 40 µM

Q. Which CC50 at 24 h reading was recorded for the compound O=c1c(O)ccc(-c2ccccc2)cc1O ?
A. 96 µM

====

- method: Cytotoxicity reported with the HBV assay (Table 4)
- Format: cell-based
- assay.conditions: human, hepatoma cells; read-out: CC50 (HBV assay table)
Overview of reported CC50 at 24 h across a group of compounds:
Respond with the bare value in µM.

Examples with answers:
compound	CC50 at 24 h, µM
Cc1cc(O)c(=O)c(O)cc1-c1cccc(-c2ccccc2)c1 [Compound 231]	16
COC(=O)c1c(CCl)cc(O)c(=O)c(O)c1C(=O)OC [Compound 107]	71
O=c1c(O)ccc(-c2ccc(-c3ccccc3)cc2)cc1O [Compound 264]	28

Now look at this entry.
Q. Suppose we examine the compound Cc1cc(O)c(=O)c(O)cc1-c1cccc(Br)c1 [Compound 119] ; what CC50 at 24 h value has been reported?
A. 81
